# Tested on: OVCAR-5 ovarian
# procedure-text: NCI tumour cell line growth inhibition, 48 h
// reported TGI per item
recorded-metric: TGI

{"molecule": "CC(C)(C)N(Cc1ccccc1)C(=O)/C=C\\S(=O)c1ccccc1 (stereo unspecified)", "result": "28.8 µM"}
{"molecule": "CN(Cc1cnc2nc(N)nc(N)c2n1)c1ccc(C(=O)NCCCS(=O)(=O)O)cc1", "result": "> 100 µM"}
{"molecule": "NC1=C(O)c2cccc3cccc(c23)C1=O", "result": "> 100 µM"}
{"molecule": "COCN1C(=O)[C@@H]2CCCN2C(=O)c2cc(OC)c(Cc3ccccc3)cc21", "result": "> 100 µM"}
{"molecule": "O=C(N/N=C/c1ccc(Cl)cc1)c1ccc(NC(=O)c2ccccn2)cc1", "result": "> 100 µM"}
{"molecule": "Cc1cccc(Nc2nc3ccccc3nc2NS(=O)(=O)c2ccc(N)cc2)c1", "result": "> 100 µM"}
